For each of the molecules below, state its IC50.
Molecular target: UniProtKB Q96P20
Experiment: Human whole blood IL-1β release assay (LPS + nigericin, AlphaLisa)
Type: cell-based
Parameters: Plate out 80 μl of whole blood containing 1 μg/ml of LPS in 96-well, clear bottom cell culture plate; from tissue; host or cells: human whole blood from healthy donors (Li-heparin)
Settings: NLRP3 inhibitory activity in human whole blood, 1 μg/ml LPS, 10 μM nigericin, read-out: HWB IC50
Procedure: For systemic delivery, the ability to inhibit NLRP3 when the compounds are present within the bloodstream is of great importance. For this reason, the NLRP3 inhibitory activity of a number of compounds in human whole blood was investigated in accordance with the following protocol. Human whole blood in Li-heparin tubes was obtained from healthy donors from a volunteer donor panel. • 1. […] IL-1β was measured according to the manufacturer protocol (Perkin Elmer-AlphaLisa IL-1 Kit AL220F-5000) • 8. […]
Counter-ions that a name gives are not always drawn.

Q: Look up IC50: O=C(Nc1c2c(cc3c1CCC3)CCC2)NS(=O)(=O)Cc1ccc(Cl)c(F)c1 [Example 13, Sodium Salt]
Result: > 10 µM

Q: Need IC50 of [N-]=[N+]=NCCCS(=O)(=O)NC(=O)Nc1c2c(cc3c1CCC3)CCC2 [Example 21, Potassium Salt] , thanks.
Result: ≤ 5 µM

Q: Please give the measured IC50 for this molecule: O=C(Nc1c2c(cc3c1CCC3)CCC2)NS(=O)(=O)Cc1ccccc1 [Example 1, Potassium Salt]
Result: ≤ 5 µM

Q: Which IC50 value is on record for CC(c1ccccc1)S(=O)(=O)NC(=O)Nc1c2c(cc3c1CCC3)CCC2 (stereo not shown) ?
Result: 7.5 to 10 µM

Q: Name the recorded IC50 for O=C(Nc1c2c(cc3c1CCC3)CCC2)NS(=O)(=O)Cc1cccc(Br)c1 [Example 19, Sodium Salt] .
Result: > 10 µM

Q: // IC50 lookup, key: O=C(Nc1c2c(cc3c1CCC3)CCC2)NS(=O)(=O)Cc1ccc(Cl)cc1F [Example 12, Sodium Salt]
Result: > 10 µM

Q: Look at this molecule and give its reported IC50. O=C(Nc1c(-c2ccncc2)cc(F)c2c1CCC2)NS(=O)(=O)CCc1ccccc1
Result: 5 to 7.5 µM

Q: Sample O=C(Nc1c2c(cc3c1CCC3)CCC2)NS(=O)(=O)Cc1ccc(C(F)(F)F)cc1 [Example 10, Sodium Salt] — what was its IC50?
Result: 5 to 7.5 µM

Q: Entry under review: O=C(Nc1c2c(cc3c1CCC3)CCC2)NS(=O)(=O)Cc1ccc(Cl)c(Cl)c1 [Example 6, Sodium Salt] . Reported IC50?
Result: > 10 µM

Q: Could you share which IC50 value was measured for O=C(Nc1c2c(cc3c1CCC3)CCC2)NS(=O)(=O)Cc1cc(Cl)cc(Cl)c1 [Example 4, Sodium Salt] ?
Result: > 10 µM

Q: So what does the record say about IC50 for COc1cccc(CS(=O)(=O)NC(=O)Nc2c3c(cc4c2CCC4)CCC3)c1 [Example 11, Sodium Salt] ?
Result: 7.5 to 10 µM

Q: Entry Cc1cccc(CS(=O)(=O)NC(=O)Nc2c3c(cc4c2CCC4)CCC3)c1 [Example 20, Sodium Salt] : reported IC50 = ?
Result: 5 to 7.5 µM

Q: Return reported IC50; argument: O=C(Nc1c2c(cc3c1CCC3)CCC2)NS(=O)(=O)Cc1ccccc1Cl [Example 15, Sodium Salt]
Result: > 10 µM

Q: What value of IC50 has been reported for the following molecule? O=C(Nc1c2c(cc3c1CCC3)CCC2)NS(=O)(=O)Cc1ccc(F)cc1 [Example 7, Sodium Salt]
Result: ≤ 5 µM

Q: Report IC50 for O=C(Nc1c2c(cc3c1CCC3)CCC2)NS(=O)(=O)Cc1ccc(Cl)cc1 [Example 5, Sodium Salt] please.
Result: 5 to 7.5 µM

Q: What IC50 value was documented for this molecule, COC(=O)c1ccc(CS(=O)(=O)NC(=O)Nc2c3c(cc4c2CCC4)CCC3)cc1 [Example 9, Sodium Salt] ?
Result: ≤ 5 µM

###

I'd appreciate it if you could supply IC50 values for the items below.
Target: NLRP3 (Homo sapiens)
Sequence (Q96P20 whole entry): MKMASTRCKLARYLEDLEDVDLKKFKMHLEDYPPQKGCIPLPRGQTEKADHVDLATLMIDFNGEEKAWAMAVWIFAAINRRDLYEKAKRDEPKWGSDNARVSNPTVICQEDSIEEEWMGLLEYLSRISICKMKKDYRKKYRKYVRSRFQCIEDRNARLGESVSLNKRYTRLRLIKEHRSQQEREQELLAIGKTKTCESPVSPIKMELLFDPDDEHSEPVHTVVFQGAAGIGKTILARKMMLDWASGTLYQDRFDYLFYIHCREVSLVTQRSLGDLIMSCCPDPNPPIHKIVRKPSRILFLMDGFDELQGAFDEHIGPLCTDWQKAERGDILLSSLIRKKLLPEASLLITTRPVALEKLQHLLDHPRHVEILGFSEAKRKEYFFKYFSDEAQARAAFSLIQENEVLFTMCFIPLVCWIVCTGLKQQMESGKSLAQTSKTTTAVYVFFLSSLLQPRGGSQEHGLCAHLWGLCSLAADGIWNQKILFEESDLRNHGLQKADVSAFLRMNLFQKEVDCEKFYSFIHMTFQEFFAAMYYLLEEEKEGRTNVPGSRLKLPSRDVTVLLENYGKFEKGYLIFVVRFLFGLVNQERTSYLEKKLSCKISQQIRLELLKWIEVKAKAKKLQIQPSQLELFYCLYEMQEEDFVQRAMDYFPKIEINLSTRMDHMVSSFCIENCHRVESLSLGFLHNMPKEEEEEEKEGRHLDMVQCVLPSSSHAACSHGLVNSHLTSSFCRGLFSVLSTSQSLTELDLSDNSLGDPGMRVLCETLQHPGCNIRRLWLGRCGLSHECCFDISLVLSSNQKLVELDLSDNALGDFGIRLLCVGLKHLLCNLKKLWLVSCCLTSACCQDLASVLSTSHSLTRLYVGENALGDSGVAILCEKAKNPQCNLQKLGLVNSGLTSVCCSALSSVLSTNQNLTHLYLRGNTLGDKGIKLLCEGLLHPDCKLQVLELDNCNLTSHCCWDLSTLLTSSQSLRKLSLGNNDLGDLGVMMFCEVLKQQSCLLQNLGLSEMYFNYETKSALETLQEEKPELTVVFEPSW
Test: Human whole blood IL-1β release assay (LPS + nigericin, AlphaLisa)
Format: cell-based
Parameters: Plate out 80 μl of whole blood containing 1 μg/ml of LPS in 96-well, clear bottom cell culture plate; from tissue; host or cells: human whole blood from healthy donors (Li-heparin)
Conditions: NLRP3 inhibitory activity in human whole blood, 1 μg/ml LPS, 10 μM nigericin, read-out: HWB IC50
Structures can show the parent of a compound that is named as a salt.

Q: Look up IC50 for this compound: Cc1ccc(CS(=O)(=O)NC(=O)Nc2c3c(cc4c2CCC4)CCC3)cc1 [Example 14, Sodium Salt]
Result: 5 to 7.5 µM

Q: Param item = N#Cc1ccc(CS(=O)(=O)NC(=O)Nc2c3c(cc4c2CCC4)CCC3)cc1 [Example 8, Sodium Salt] ; retrieve measured IC50.
Result: ≤ 5 µM

Q: Give its IC50 value. Item: O=C(Nc1c2c(cc3c1CCC3)CCC2)NS(=O)(=O)CCc1ccccc1
Result: > 10 µM

Q: Quick one: IC50 of C=CS(=O)(=O)NC(=O)Nc1c2c(cc3c1CCC3)CCC2 ?
Result: ≤ 5 µM
